Recorded values, source PubChem BioAssay.

System: Inhibin beta A chain (activin A)
assay.protocol: INHBA (activin A) binders on microarrays, primary screen, biochemical, small-molecule microarray, 635 nm fluorescence scan (AID 1107);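 also: mouse activin A protein probed at 4.33 µg/mL on printed slides; score merges bound-protein fluorescence near 667 nm with spot signal-to-noise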
conditions: small-molecule microarray binding, higher = more signal
Recorded composite z-score, one value per entry.
Give a plain numeric answer without units written out.

The molecule identified as O=C1O[C@H](c2ccccc2)[C@H](c2ccccc2)N2[C@H]1[C@@H](C(=O)N1CCN(c3ncccn3)CC1)[C@]1(C(=O)Nc3ccccc31)[C@H]2c1ccc(O)cc1 registered its composite z-score at 0.0112

---

tgt: Calmodulin-1 (Homo sapiens) (UniProt P0DP23)
assay.protocol: calcium-bound CALM1 binders on microarrays, profiling panel, artefact control for SMM control-protein annotation, biochemical, small-molecule microarray, Cy5-labelled CALM1, plus calcium (AID 1112);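 also: score merges spot fluorescence with signal to noise from triplicate slides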
conditions: Cy5-CALM1 binding fluorescence, higher = more signal
Class (by composite z-score) -- band 1: < -0.1; band 2: ≥ -0.1 and < 0.4; band 3: ≥ 0.4

COC(=O)[C@@]1(Cc2ccccc2CN=[N+]=[N-])COC(c2ccc(OCCCO)cc2)=N1 ... band 2

Request: Assign a category based on measured composite z-score for C=CCNC(=O)[C@H]1[C@@H]2C(=O)O[C@@H](c3ccccc3)[C@@H](c3ccccc3)N2[C@@H](c2ccc(O)cc2)[C@]12C(=O)Nc1ccc(C#CC3=CCCCC3)cc12 and give only the class name.
Response: band 3

Request: Hi, small favor: classify COCCOC(=O)N1C(=O)[C@@]2(c3cc(C#CCCO)ccc31)[C@H](c1ccccc1OCCO)N1[C@H](c3ccccc3)[C@H](c3ccccc3)OC(=O)[C@H]1[C@@H]2C(=O)N1CCc2cc(OC)c(OC)cc2C1 by its composite z-score when you get a moment.
Response: band 2

Request: The entry to classify is O=C1NC(=O)C2C1C=CC(C(O)c1cccc(O)c1)N2Nc1ccc(Cl)cc1Cl (centres undefined) ; which class holds it?
Response: band 3

Request: Where would Cc1ccc(S(=O)(=O)N2[C@@H](c3ccccc3)C(C(=O)O)=CC[C@H]2c2ccc(C#N)cc2)cc1 land among the classes by reported composite z-score?
Response: band 1

Request: Please report the category associated with CO[C@H]1O[C@H](CO)[C@@H](OC(=O)Nc2ccc(C(F)(F)F)cc2)[C@H](OC(=O)Nc2ccccc2-c2ccccc2)[C@@H]1OC(=O)Nc1ccccc1-c1ccccc1 , nothing else.
Response: band 2

Request: Bin? COCCOC(=O)N1C(=O)[C@@]2(c3ccccc31)[C@H](c1ccc(OCCO)cc1)N1[C@H](c3ccccc3)[C@H](c3ccccc3)OC(=O)[C@H]1[C@@H]2C(=O)N1CCN(c2ncccn2)CC1
Response: band 2

Request: State the band of C=CCC(OC(C)=O)[C@@H]1[C@@H](N(Cc2cccc3ccccc23)C(=O)c2cccc3ccccc23)c2cc(OCCCO)ccc2N1C(=O)Cc1ccc2ccccc2c1 (some centres undefined)
Response: band 1

Request: Categorize the following entry: CCCCC=C[C@@H](NC(=O)c1ccc(C(F)(F)F)cc1)c1ccccc1
Response: band 2

Request: // bin(item) where item = COc1ccc([Si](C)(C)[C@H]2[C@H](CCn3cc([C@H](O)c4ccccc4)nn3)O[C@@]3(C(=O)N(c4ccccc4)c4ccccc43)[C@@H]2C)cc1
Response: band 3

Request: Any idea which band CN(C)CCCC[C@@H]1NC(=O)[C@H]2C[C@@H](C(=O)O)[C@@H](c3cccc(OCCO)c3)N2C1=O is in?
Response: band 2

Request: State the band of CCCCCN1CC=CC23O[C@@H]4C=CCOC(=O)[C@@H]4[C@H]2C(=O)N(CCCCCO)[C@@H]3C1=O (some centres undefined)
Response: band 1

Request: Category of O=C1OCCC/C=C\[C@H]2OC34C=CCN(Cc5ccccc5)C(=O)[C@H]3N(CCCCCO)C(=O)[C@@H]4C12 (some centres undefined) :
Response: band 1

---

System: Human papillomavirus type 1a E7 protein (residues 1-88)
assay.protocol: HPV1a E7 small-molecule binders, primary screen, biochemical, small-molecule microarray, residues 1-88, 635 nm (AID 1129)
conditions: small-molecule microarray binding, fluorescence 635 nm; higher = more signal
property.label: composite z-score
Give the figure only, with no unit attached.

Example cases with answers are listed next.
COCCOC(=O)N1C(=O)[C@@]2(c3cc(C#CC4(O)CCCCCC4)ccc31)[C@H](C(=O)N1CCc3cc(OC)c(OC)cc3C1)[C@H]1C(=O)O[C@H](c3ccccc3)[C@H](c3ccccc3)N1[C@@H]2c1ccc(O)cc1 ... 1.23
CC(C)C[C@@H]1NC(=O)C([C@@H](C)OCc2ccccc2)NC(=O)[C@@]23C(=O)N[C@@H](Cc4ccccc4)C2[C@H](C)[C@@]2(C)O[C@H]2C3/C=C/CC/C=C/CNC1=O (some centres undefined) ... 0.809
COc1cc2c(cc1O)C(c1ccc(CN3CCCC3)cc1)N(Cc1ccc([N+](=O)[O-])o1)CC2 (centres undefined) ... -0.96
C[N+](C)(C)CCCC[C@@H]1NC(=O)[C@H]2C[C@@H](C(=O)NCCCCCNC(=O)CS)[C@@H](c3ccc(O)cc3)N2C1=O ... 0.785
CO[C@H]1O[C@H](CO)[C@@H](OC(=O)Nc2ccc(C(F)(F)F)cc2)[C@H](OC(=O)Nc2ccccc2-c2ccccc2)[C@@H]1OC(=O)Nc1ccccc1-c1ccccc1 ... 1.1

Form: item [N-]=[N+]=NCc1ccccc1[C@@H]1OC(c2ccc(OCCCO)cc2)=N[C@]1(Cc1ccccc1)C(=O)NCc1ccccc1 ; test system Human papillomavirus type 1a E7 protein (residues 1-88); composite z-score: 1.18

Tested on Human papillomavirus type 1a E7 protein (residues 1-88), the item CCCCN1CC=CC23O[C@@H]4C=CCOC(=O)[C@@H]4[C@H]2C(=O)N(CCO)[C@@H]3C1=O (some centres undefined) showed composite z-score equal to -0.629

Summary line: C=CCN1C(=O)[C@]2(O[C@H](CCO)[C@@H]([Si](C)(C)c3ccc(OC)cc3)[C@@H]2C)c2ccccc21 , Human papillomavirus type 1a E7 protein (residues 1-88), reported composite z-score = 0.745

---

assay.protocol: P. aeruginosa biofilm formation inhibitors, primary screen, strain PAO1, LB-PBS medium, absorbance 600 nm (AID 1176); also: test concentration not given here
conditions: P. aeruginosa PAO1 growth/biofilm, A600, 12 h; higher = more signal
property.label: z-score
// keep it numeric: no unit symbol after the value

Lab note: CCOC(=O)C[C@H]1[C@H](OC(=O)c2cc3ccccc3oc2=O)[C@@H](NC(=O)C2CCCCC2)c2cc(OCCCO)ccc2N1C(=O)Cc1ccc(OC)cc1 gave z-score of -0.234

---

assay.protocol: MM1S cell viability effects, profiling panel, calcein-AM fluorescence, 48 h, basal (AID 1165);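 also: viability of MM1S multiple myeloma cells under basal unstimulated conditions; test concentration not given here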
conditions: higher = more signal
property.label: z-score

Recorded z-score, per entry:
CN(C)CCCC[C@@H]1NC(=O)[C@H]2C[C@@H](C(=O)NCc3ccc(F)cc3)[C@@H](c3ccc(O)cc3)N2C1=O ... -0.0511
COc1ccc([Si](C)(C)[C@H]2[C@H](CC(=O)N3Cc4ccccc4C[C@H]3CO)O[C@@]3(C(=O)N(Cc4cccc(N5C(=O)c6cccc7cccc5c67)c4)c4ccccc43)[C@@H]2C)cc1 ... -2.54
COc1ccccc1CN1C(=O)c2ccccc2[C@](Cc2ccccc2I)(C(=O)NCCCN(C)C)[C@@H]1c1ccc(CO)cc1 ... -3.81
COCCOC(=O)N1C(=O)[C@@]2(c3cc(C#CCNC(N)=O)ccc31)[C@H](C(=O)NC[C@H](O)c1ccccc1)[C@H]1C(=O)O[C@H](c3ccccc3)[C@H](c3ccccc3)N1[C@@H]2c1ccc(OCCO)cc1 ... -0.286

Value of measured z-score for the entry C#CCN(C/C=C/c1ccccc1)[C@H](CO[Si](C)(C)C(C)(C)C)c1ccccc1 : -0.848

Per the records, this molecule ( COCC(=C=CC[C@@H](O)c1cccc(OCCO)c1)C[C@@H](O)COCc1ccccc1 ) has z-score equal to 1.16

---

assay.protocol: Plasmodium falciparum growth inhibition, primary screen, strain 3D7, DAPI fluorescence, 100 nL (AID 1184);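 also: parasites grown inside human red blood cells in medium with human serum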
conditions: P. falciparum 3D7 growth, 3 d, higher = more signal
property.label: z-score
Answer field: number only, no words.

A selection of reference data follows.
CC(C)CNC(=O)[C@@H]1c2ccccc2C(=O)N(C2Cc3ccccc3C2)[C@H]1c1ccc(CO)cc1 ... 0.134
COC(=O)[C@@]1(Cc2ccc(OC)cc2)[C@@H]2[C@@H](CC(=O)[C@H]2CC(=O)C(=O)N2CCCC2)CN1C(=O)c1ccccc1 ... -0.937
O=C1O[C@@H](c2ccccc2)[C@@H](c2ccccc2)N2[C@@H](c3ccc(O)cc3)[C@]3(C(=O)Nc4ccc(C#CC5=CCCCC5)cc43)[C@@H](C(=O)N3CCCCCCC3)[C@H]12 ... -1.99

Turning now to a further record.
Record C#CCN=C(N)N . Reported z-score: -0.624
